# Study system: Steryl-sulfatase (Homo sapiens, UniProt P08842)
# Sequence (P08842 whole entry): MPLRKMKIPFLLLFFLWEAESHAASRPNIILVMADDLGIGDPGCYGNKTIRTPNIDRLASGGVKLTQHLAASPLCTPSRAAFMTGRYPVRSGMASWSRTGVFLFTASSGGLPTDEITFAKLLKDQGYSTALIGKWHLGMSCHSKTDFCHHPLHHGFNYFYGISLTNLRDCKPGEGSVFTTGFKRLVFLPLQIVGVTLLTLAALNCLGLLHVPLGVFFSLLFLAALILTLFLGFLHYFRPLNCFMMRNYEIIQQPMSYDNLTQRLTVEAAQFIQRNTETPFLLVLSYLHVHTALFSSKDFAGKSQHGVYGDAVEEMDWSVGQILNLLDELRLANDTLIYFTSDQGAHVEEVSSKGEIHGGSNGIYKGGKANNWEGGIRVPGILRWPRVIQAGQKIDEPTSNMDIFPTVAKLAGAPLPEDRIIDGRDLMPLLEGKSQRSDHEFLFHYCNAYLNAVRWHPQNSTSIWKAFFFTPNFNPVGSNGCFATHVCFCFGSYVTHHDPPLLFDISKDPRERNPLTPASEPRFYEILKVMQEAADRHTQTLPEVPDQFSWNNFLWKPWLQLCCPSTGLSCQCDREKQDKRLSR
# Method summary: Inhibition of estrone sulfatase in human MCF7 cell microsomes
Endpoint: IC50 (nM)
# unit: nM | format: bare number

Quick note, IC50 for C[C@H]1[C@H](C)CC[C@]2(C(=O)O)CC[C@]3(C)C(=CC[C@@H]4[C@@]5(C)CC[C@H](O)C(C)(C)[C@@H]5CC[C@]43C)[C@H]12 [URSOLIC ACID] landed at 263

---

# Tested on: MCF7
# Method summary: Antiproliferative activity against human MCF7 cells assessed as inhibition of cell growth incubated for 2 days by SRB assay
# Format: functional, cell-based
# Experimental conditions: MCF7, 48 h
Endpoint: IC50 (µM)
# unit: µM | format: bare number

Quick note, IC50 for COc1cc(O)c(CC=C(C)C)c(O)c1C(=O)/C=C/c1ccc(O)cc1 landed at 13.3

Quick note, IC50 for COc1cc2c(c(O)c1C(=O)/C=C/c1ccc(O)cc1)C=CC(C)(C)O2 landed at 15.7

Quick note, IC50 for COc1cc(O)c(CC=C(C)C)c2c1C(=O)CC(c1ccc(O)cc1)O2 (stereo not drawn) landed at 15.3

---

# Method summary: Oral bioavailability in CD rat at 168 mg/kg administered daily for 14 days
# Type: ADME, organism-based
# Experimental conditions: in vivo, time 14 day
Endpoint: bioavailability (%)
# unit: % | format: bare number

Quick note, bioavailability for COc1cc(/C=C/c2ccc(O)cc2)cc(OC)c1 landed at 80

---

# Tested on: MCF7
# Method summary: Antiproliferative activity against human MCF7 cells assessed as inhibition of cell growth incubated for 4 days by SRB assay
# Assay type: functional, cell-based
# Experimental conditions: MCF7, 96 h
Task for the reader: assign each of the following compounds its reported IC50.
# unit: µM | format: bare number

Item: COc1cc2c(c(O)c1C(=O)/C=C/c1ccc(O)cc1)C=CC(C)(C)O2 | System: MCF7 | IC50: 6.87

Item: COc1cc(O)c(CC=C(C)C)c2c1C(=O)CC(c1ccc(O)cc1)O2 (stereo not drawn) | System: MCF7 | IC50: 4.69

Item: COc1cc(O)c(CC=C(C)C)c(O)c1C(=O)/C=C/c1ccc(O)cc1 | System: MCF7 | IC50: 3.47

---

# Method summary: Oral bioavailability in CD rat at 50 mg/kg administered daily for 14 days
# Type: ADME, organism-based
# Experimental conditions: in vivo, time 14 day
Endpoint: bioavailability (%)
# unit: % | format: bare number

Quick note, bioavailability for Oc1ccc(/C=C/c2cc(O)cc(O)c2)cc1 landed at 20

---

# Method summary: Cytotoxicity against human MCF-10A cells assessed as inhibition of cell growth by MTT assay
# Assay type: toxicity, cell-based
Endpoint: pIC50
On this scale, pIC50 is minus log10 of a concentration expressed in M (mol/L).

Quick note, pIC50 for COc1ccc(-c2cc(=O)c3c(OC)c(OC)c(OC)cc3o2)cc1OC [SINENSETIN] landed at 4.19

Quick note, pIC50 for COc1cc(O)c2c(=O)cc(-c3ccc(O)cc3)oc2c1 [GENKWANIN] landed at 4.12

Quick note, pIC50 for O=C(O)[C@H]1O[C@@H](Oc2cc(O)c3c(=O)cc(-c4ccc(O)cc4)oc3c2)[C@H](O)[C@@H](O)[C@@H]1O landed at 4.38

---

Task for the reader: assign each of the following molecules its reported IC50.
Put your answer as a value accompanied by its unit after it.

Item: O=c1c(-c2ccc(O)cc2)coc2cc(O)cc(O)c12 [GENISTEIN] | System: UniProt:P15709 | IC50: 34 µM

Item: O=c1c(O)c(-c2ccc(O)c(O)c2)oc2cc(O)cc(O)c12 [QUERCETIN] | System: UniProt:P15709 | IC50: 34 µM
